B1: Probable E3 ubiquitin-protein ligase MID2, residues 191 to 235; numbered along this chain, Q9UJV3 (parent)
chain: RGITCLDHENEKVNMYCVSDDQLICALCKLVGRHRDHQVASLNDR

- Variants of: B1
- assayProcedure: abundance fitness (aPCA) (normalised: wild type 0, dead -1); higher = more abundant; growth selection in yeast, the domain comes from the species named
- studyConditions: Homo sapiens
reportedEndpoint: abundance fitness
// return a plain number; no unit text

Query string: Please report the recorded abundance fitness for I3M .
Result string: 0.111

Query string: What do we get for N14V ?
Result string: -0.055

Query string: What do we get for T4C ?
Result string: -0.18

Query string: What do we get for C28S ?
Result string: -0.678

Query string: What do we get for S19H ?
Result string: 0.093

Query string: What do we get for N14P ?
Result string: -0.434

Query string: What do we get for Q38I ?
Result string: -0.357

Query string: What do we get for D21S ?
Result string: -0.088

Query string: What do we get for K29Q ?
Result string: -0.016

Query string: What do we get for Y16D ?
Result string: -0.067

Query string: What do we get for H8Y ?
Result string: -0.831

Query string: What do we get for N14E ?
Result string: 0.104

Query string: What do we get for Q38T ?
Result string: -0.195

Query string: What do we get for A40K ?
Result string: -0.138

Query string: What do we get for Y16L ?
Result string: -0.127

Query string: What do we get for G2C ?
Result string: -0.511

Query string: What do we get for T4D ?
Result string: -0.16

Query string: What do we get for L42G ?
Result string: -0.071

Query string: What do we get for C5N ?
Result string: -0.487

Query string: What do we get for D44W ?
Result string: -0.472

Query string: What do we get for S41T ?
Result string: -0.001

Query string: What do we get for D20P ?
Result string: -0.625

Query string: What do we get for H34A ?
Result string: -0.48

Query string: What do we get for D44S ?
Result string: -0.067

Query string: What do we get for E11I ?
Result string: -0.334

Query string: What do we get for R1A ?
Result string: -0.158

Query string: What do we get for R33I ?
Result string: -0.106

Query string: What do we get for A40R ?
Result string: 0.014

Query string: What do we get for N14S ?
Result string: 0.06

Query string: What do we get for E9F ?
Result string: 0.1

Query string: What do we get for R35P ?
Result string: -0.195

Query string: What do we get for G2T ?
Result string: -0.06

Query string: What do we get for N10T ?
Result string: -0.26

Query string: What do we get for A40C ?
Result string: -0.063

Query string: What do we get for Y16Q ?
Result string: 0.236

Query string: What do we get for C5M ?
Result string: -0.462

Query string: What do we get for K12E ?
Result string: 0.104

Query string: What do we get for H8E ?
Result string: -0.47

Query string: What do we get for N10I ?
Result string: -0.176

Query string: What do we get for S41D ?
Result string: 0.087

Query string: What do we get for V39T ?
Result string: 0.06

Query string: What do we get for L23E ?
Result string: 0.137

Query string: What do we get for A26S ?
Result string: -0.006

Query string: What do we get for G2L ?
Result string: -0.218

Query string: What do we get for S19A ?
Result string: 0.107

Query string: What do we get for C5K ?
Result string: -0.379

Query string: What do we get for I24G ?
Result string: -0.269

Query string: What do we get for R35L ?
Result string: -0.321

Query string: What do we get for C25P ?
Result string: -0.417

Query string: What do we get for I3E ?
Result string: 0.036

Query string: What do we get for M15D ?
Result string: 0.001

Query string: What do we get for C25E ?
Result string: -0.786

Query string: What do we get for N43S ?
Result string: -0.022

Query string: What do we get for R35K ?
Result string: 0.019

Query string: What do we get for G32Q ?
Result string: -0.472

Query string: What do we get for N43E ?
Result string: 0.192

Query string: What do we get for Q22I ?
Result string: -0.259

Query string: What do we get for L6S ?
Result string: 0.118

Query string: What do we get for N10D ?
Result string: -0.072

Query string: What do we get for N14C ?
Result string: -0.204

Query string: What do we get for L6W ?
Result string: -0.253

Query string: What do we get for L23M ?
Result string: 0.199

Query string: What do we get for A26Q ?
Result string: -0.017

Query string: What do we get for D20H ?
Result string: -0.459

Query string: What do we get for A40M ?
Result string: -0.216

Query string: What do we get for H34P ?
Result string: -0.66

Query string: What do we get for D36C ?
Result string: -0.278

Query string: What do we get for E9D ?
Result string: 0.017

Query string: What do we get for G32I ?
Result string: -0.459

Query string: What do we get for D36T ?
Result string: -0.176

Query string: What do we get for D44L ?
Result string: -0.427

Query string: What do we get for A26D ?
Result string: 0.13

Query string: What do we get for C5E ?
Result string: -0.307

Query string: What do we get for L42V ?
Result string: -0.016

Query string: What do we get for K29F ?
Result string: -0.132

Query string: What do we get for S41V ?
Result string: -0.298

Query string: What do we get for K29D ?
Result string: -0.211

Query string: What do we get for D7H ?
Result string: -0.015

Query string: What do we get for N10E ?
Result string: -0.55

Query string: What do we get for S19M ?
Result string: -0.067

Query string: What do we get for G2V ?
Result string: -0.216

Query string: What do we get for T4Q ?
Result string: -0.257

Query string: What do we get for A26Y ?
Result string: -0.092

Query string: What do we get for L23P ?
Result string: 0.144

Query string: What do we get for H34R ?
Result string: -0.459

Query string: What do we get for L6P ?
Result string: 0.156

Query string: What do we get for Q38D ?
Result string: 0.117

Query string: What do we get for G32D ?
Result string: -0.337

Query string: What do we get for A40S ?
Result string: 0.063

Query string: What do we get for R45T ?
Result string: -0.04

Query string: What do we get for I3Q ?
Result string: -0.181

Origin of values: the Human Domainome abundance scans (Beltran et al. 2025)
